# assay-method-text: phase 1 study in patients with mild to moderate Parkinson's disease (PK, safety)
# Format: in vivo, human
# condition: human, plasma, oral, 150 mg, PD patients; Regimen A 150 mg single dose on Day 9, fed state; read-out: Tmax (range)

# compound, Tmax
records = [
    ("Brc1cccc(-c2cc(-c3ccc4c(c3)OCO4)n[nH]2)c1 [anle138b]", "1.5 to 4 h"),
]

###

# assay-method-text: phase 1 study in patients with mild to moderate Parkinson's disease (PK, safety)
# Assay type: in vivo, human
# condition: human, plasma, oral, 150 mg, PD patients; Regimen A 150 mg QD (row prints fed, title fasted state); Day 1; tau 24 h; read-out: Ctau (geometric mean)
measured-property: concentration at 24 h (ng/mL)

# molecule, experimental-result
measured = [
    ("Brc1cccc(-c2cc(-c3ccc4c(c3)OCO4)n[nH]2)c1 [anle138b]", 3.76),
]

###

# assay-method-text: phase 1 first-in-human trial, multiple ascending dose (MAD) PK
# Type: in vivo
# condition: human, plasma, oral, 100 mg, healthy volunteers, fasted; 100 mg QD (Cohort AM); Day 7; read-out: Tmax (median)

# molecule, Tmax
measured = [
    ("Brc1cccc(-c2cc(-c3ccc4c(c3)OCO4)n[nH]2)c1 [anle138b]", "1.25 h"),
]

###

# assay-method-text: phase 1 study in patients with mild to moderate Parkinson's disease (PK, safety)
# Format: in vivo, human
# condition: human, plasma, oral; PD patients; Regimen B 300 mg single dose on Day 9, fed state; n = 4; read-out: AUC(0-inf) (geometric mean)
measured-property: AUC(0-inf) (ng·h/mL)

# compound, measured-property, unit-spec, experimental-result
rows = [
    ("Brc1cccc(-c2cc(-c3ccc4c(c3)OCO4)n[nH]2)c1 [anle138b]", "AUC(0-inf)", "ng·h/mL", 826),
]

###

# assay-method-text: phase 1 first-in-human trial, food effect study (FES) PK
# Type: in vivo
# condition: human, plasma, po, 150 mg, healthy volunteers; single oral 150 mg; fed; read-out: AUC(0-last) (geometric mean)
measured-property: AUC(0-t) (ng·h/mL)

# compound, experimental-result
data = [
    ("Brc1cccc(-c2cc(-c3ccc4c(c3)OCO4)n[nH]2)c1 [anle138b]", 668),
]

###

# assay-method-text: phase 1 first-in-human trial, food effect study (FES) PK
# Format: in vivo
# condition: human, plasma, oral, 150 mg, 150 mg single dose; fed; read-out: Cmax range

# compound, Cmax
records = [
    ("Brc1cccc(-c2cc(-c3ccc4c(c3)OCO4)n[nH]2)c1 [anle138b]", "110 to 479 ng/mL"),
]

###

# assay-method-text: phase 1 study in patients with mild to moderate Parkinson's disease (PK, safety)
# Assay type: in vivo, human
# condition: human, plasma, oral, 300 mg, PD patients; Regimen B 300 mg single dose on Day 9, fed state; n = 4; read-out: T1/2 (geometric mean) (converted)
measured-property: half-life (h)

# compound, experimental-result
rows = [
    ("Brc1cccc(-c2cc(-c3ccc4c(c3)OCO4)n[nH]2)c1 [anle138b]", 13),
]

###

# assay-method-text: phase 1 first-in-human trial, multiple ascending dose (MAD) PK
# Format: in vivo
# condition: human, plasma, oral, 100 mg, healthy volunteers, fasted; 100 mg QD; Day 1; read-out: Cmax (geometric mean)

# molecule, Cmax
rows = [
    ("Brc1cccc(-c2cc(-c3ccc4c(c3)OCO4)n[nH]2)c1 [anle138b]", "~0.135 µg/mL"),
]

###

# assay-method-text: phase 1 study in patients with mild to moderate Parkinson's disease (PK, safety)
# Type: in vivo, human
# condition: human, plasma, oral, 150 mg, patient; 150 mg once daily for 7 consecutive days, fed conditions as printed; day 7; read-out: T½ of anle138b (clause 14) (converted)

# molecule, half-life
records = [
    ("Brc1cccc(-c2cc(-c3ccc4c(c3)OCO4)n[nH]2)c1 [anle138b]", "~702 min"),
]

###

# assay-method-text: phase 1 first-in-human trial, multiple ascending dose (MAD) PK
# Format: in vivo
# condition: human, plasma, oral, 100 mg, healthy volunteers, fasted; 100 mg QD (Cohort AM); Day 1; read-out: Tmax (range)
measured-property: Tmax

# molecule, experimental-result
measured = [
    ("Brc1cccc(-c2cc(-c3ccc4c(c3)OCO4)n[nH]2)c1 [anle138b]", "1 to 1.5 h"),
]

###

# assay-method-text: phase 1 first-in-human trial, food effect study (FES) PK
# Format: in vivo
# condition: human, plasma, po, 150 mg, healthy volunteers; single oral 150 mg; fasted; read-out: T1/2 (geometric mean) (converted)

# compound, half-life, h
records = [
    ("Brc1cccc(-c2cc(-c3ccc4c(c3)OCO4)n[nH]2)c1 [anle138b]", 11.3),
]

###

# assay-method-text: phase 1 study in patients with mild to moderate Parkinson's disease (PK, safety)
# Type: in vivo, human
# condition: human, plasma, oral, 300 mg, PD patients; Regimen B 300 mg QD (row prints fed, title fasted state); Day 1; read-out: Tmax (range)

# compound, Tmax
records = [
    ("Brc1cccc(-c2cc(-c3ccc4c(c3)OCO4)n[nH]2)c1 [anle138b]", "1 to 4 h"),
]

###

# assay-method-text: phase 1 study in patients with mild to moderate Parkinson's disease (PK, safety)
# Format: in vivo, human
# condition: human, plasma, oral, 150 mg, PD patients; Regimen C 150 mg BID, fast; Day 7; read-out: Tmax (median)
measured-property: Tmax at 7 days

# compound, experimental-result
measured = [
    ("Brc1cccc(-c2cc(-c3ccc4c(c3)OCO4)n[nH]2)c1 [anle138b]", "1 h"),
]

###

# assay-method-text: phase 1 study in patients with mild to moderate Parkinson's disease (PK, safety)
# Format: in vivo, human
# condition: human, plasma, oral, 150 mg, PD patients; Regimen C 150 mg BID, fast; Day 7; read-out: Tmax (range)

# compound, Tmax at 7 days
measured = [
    ("Brc1cccc(-c2cc(-c3ccc4c(c3)OCO4)n[nH]2)c1 [anle138b]", "1 to 1.5 h"),
]

###

# assay-method-text: phase 1 study in patients with mild to moderate Parkinson's disease (PK, safety)
# Format: in vivo, human
# condition: human, CSF, po, 300 mg, PD patients; multiple QD oral doses of 300 mg, fasted; 3 h post-dose on Day 5; read-out: CSF anle138b concentration (geometric mean)

# compound, unit-spec, concentration at 3 h
data = [
    ("Brc1cccc(-c2cc(-c3ccc4c(c3)OCO4)n[nH]2)c1 [anle138b]", "ng/mL", 0.319),
]

###

# assay-method-text: phase 1 first-in-human trial, multiple ascending dose (MAD) PK
# Assay type: in vivo
# condition: human, plasma, oral, 100 mg, healthy volunteers, fasted; 100 mg QD; Day 7; read-out: T1/2 (geometric mean) (converted)

# molecule, half-life
rows = [
    ("Brc1cccc(-c2cc(-c3ccc4c(c3)OCO4)n[nH]2)c1 [anle138b]", "~4.23 h"),
]

###

# assay-method-text: phase 1 first-in-human trial, single ascending dose (SAD) PK
# Format: in vivo
# condition: human, plasma, po, 200 mg, healthy volunteers, fasted; single oral 200 mg; plasma; read-out: AUC(0-24) (geometric mean)

# compound, AUC(0-t)
rows = [
    ("Brc1cccc(-c2cc(-c3ccc4c(c3)OCO4)n[nH]2)c1 [anle138b]", "~1090 ng·h/mL"),
]

###

# assay-method-text: phase 1 first-in-human trial, single ascending dose (SAD) PK
# Assay type: in vivo
# condition: human, plasma, po, 50 mg, healthy volunteers, fasted; single oral 50 mg (Cohort A); read-out: Tmax (median)

# compound, Tmax / h
measured = [
    ("Brc1cccc(-c2cc(-c3ccc4c(c3)OCO4)n[nH]2)c1 [anle138b]", 1),
]

###

# assay-method-text: phase 1 study in patients with mild to moderate Parkinson's disease (PK, safety)
# Type: in vivo, human
# condition: human, plasma, oral, 150 mg, PD patients; Regimen A 150 mg QD (row prints fed, title fasted state); Day 7; tau 24 h; read-out: Ctau (geometric mean)
measured-property: concentration at 24 h (ng/mL)

# compound, unit-spec, experimental-result
rows = [
    ("Brc1cccc(-c2cc(-c3ccc4c(c3)OCO4)n[nH]2)c1 [anle138b]", "ng/mL", 1.86),
]

###

# assay-method-text: phase 1 first-in-human trial, single ascending dose (SAD) PK
# Assay type: in vivo
# condition: human, plasma, po, 300 mg, healthy volunteers, fasted; single oral 300 mg; plasma; read-out: AUC(0-last) (geometric mean)

# molecule, AUC(0-t) / ng·h/mL
measured = [
    ("Brc1cccc(-c2cc(-c3ccc4c(c3)OCO4)n[nH]2)c1 [anle138b]", 1720),
]
